# Subject of test: Metabotropic glutamate receptor 8 (Rattus norvegicus) (UniProt P70579)
# Sequence (P70579 whole entry, looked up): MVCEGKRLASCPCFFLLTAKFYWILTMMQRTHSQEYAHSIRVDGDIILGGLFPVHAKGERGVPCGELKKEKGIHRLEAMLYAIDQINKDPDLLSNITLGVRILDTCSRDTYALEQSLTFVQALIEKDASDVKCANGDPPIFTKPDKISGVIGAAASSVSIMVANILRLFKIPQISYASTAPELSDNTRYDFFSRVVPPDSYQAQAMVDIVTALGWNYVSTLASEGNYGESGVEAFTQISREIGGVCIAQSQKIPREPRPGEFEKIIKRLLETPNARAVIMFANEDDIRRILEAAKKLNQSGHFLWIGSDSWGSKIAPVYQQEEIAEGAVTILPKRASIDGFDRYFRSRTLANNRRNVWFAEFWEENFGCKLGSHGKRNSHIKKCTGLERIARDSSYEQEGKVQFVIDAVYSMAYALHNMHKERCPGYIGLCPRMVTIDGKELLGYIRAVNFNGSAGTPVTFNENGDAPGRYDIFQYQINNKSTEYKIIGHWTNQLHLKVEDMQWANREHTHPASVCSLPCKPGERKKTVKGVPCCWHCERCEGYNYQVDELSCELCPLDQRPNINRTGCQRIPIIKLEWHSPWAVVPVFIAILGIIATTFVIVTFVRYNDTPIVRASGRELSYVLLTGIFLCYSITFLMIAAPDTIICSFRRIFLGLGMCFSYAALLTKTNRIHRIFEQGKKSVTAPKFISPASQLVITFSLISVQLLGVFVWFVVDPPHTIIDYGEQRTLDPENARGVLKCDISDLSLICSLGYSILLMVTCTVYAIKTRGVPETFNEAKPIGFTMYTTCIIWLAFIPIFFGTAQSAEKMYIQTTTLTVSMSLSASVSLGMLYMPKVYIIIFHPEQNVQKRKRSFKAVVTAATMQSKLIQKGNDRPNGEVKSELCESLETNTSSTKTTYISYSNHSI
# Protocol summary: mGluR8 Gi/Go-coupled signaling modulation – cell-based, rat, thallium flux, HTS, primary screen (AID 488969)
# Measurement context: HEK293 rat mGluR8, GIRK (G protein-gated inwardly rectifying potassium channel) thallium flux, FluoZin2; at 10 µM; stronger effect = higher value; submaximal glutamate (EC20) added with thallium
Whole data set: some 110,000 compounds, median “z-score” near -0.1, cut for the highest 2% near 2. The sample holds the highest values, similar compounds and a random draw of the others, so the mix is not that of the screen.
Measured quantity: z-score

Compound	Measured result
COc1ccc(NC(=O)Nc2ccc(C)cc2OC(F)F)cc1OC	-0.0436
CCC(=O)Nc1nnc(CSCc2ccc(F)cc2)s1	0.0266
Cc1cc(NS(=O)(=O)c2ccc(NC(=S)NC(=O)c3ccccc3)cc2)no1	2.22
CCOC(=O)N1CCC(N2C(=O)c3ccccc3C2Nc2c(C)cccc2C)CC1 (configuration not stated)	-0.177
Cc1ccc(NC(=S)Nc2ccc(Cl)c(Cl)c2)c(OC(F)F)c1	5.16
COc1ccc(CN(C)CC(=O)NC(=O)NCc2ccccc2)cc1OC	5.52
Cn1cccc1C(=O)N1CCN(c2cccc(C(F)(F)F)c2)CC1	-0.386
CC(C)CCn1c(O)c(N=Nc2ccccn2)c2ccccc21	1.19
COCCN(C(=O)Nc1ccccc1)c1ccccc1	-0.157
O=C(c1ccccc1Cl)N1CCc2ccccc2C1	-1.42
CCNC(=S)Nc1ccc(Cl)cc1Cl	0.108
O=C1c2oc3ccc(Cl)cc3c(=O)c2C(c2ccco2)N1CCN1CCOCC1 (configuration not stated)	0.841
CCCOc1ccc(OCC(=O)c2[nH]c(C)c(C(C)=O)c2C)cc1	0.149
COc1cc(NC(=S)Nc2cccc(Cl)c2Cl)c(OC)cc1Cl	0.605
CCCCn1c(O)c(N=NC(=O)Cn2c(C(F)(F)F)nc3ccccc32)c2ccccc21	0.194
CCN(CC)S(=O)(=O)c1csc(C(=O)NC2CCCCC2)c1	0.101
Cc1ccc2c(c1)N(Cc1ccncc1)C(=O)C(C)O2 (configuration not stated)	0.33
Cn1c(=O)c2[nH]c(-c3cccnc3)nc2n(C)c1=O	0.366
CNC(=S)Nc1cc(Cl)ccc1Oc1ccccc1	0.287
S=C(Nc1ccccc1Cl)Nc1ccc(Cl)cc1Cl	5.05
CCNC(=S)Nc1cc(Cl)ccc1Oc1ccccc1	0.269
C=CCn1c(=S)[nH]c2ccccc2c1=O	13.6
CC(=O)c1c(C)[nH]c(C(=O)COc2cc(C)cc(C)c2)c1C	4
CC(C)CCNC(=O)CO/N=C/c1ccccc1OC(F)F	-0.572
Cc1ccc(C2c3c(oc4ccccc4c3=O)C(=O)N2CCCN2CCOCC2)o1 (configuration not stated)	0.634
CCSc1nnc(NC(=O)C2CCN(S(=O)(=O)c3ccccc3C(F)(F)F)CC2)s1	-0.565
CCc1nnc(NS(=O)(=O)c2ccc(NC(=S)NC(=O)c3ccc(Br)cc3)cc2)s1	-1.21
COc1ccc2nc(SC(C(=O)c3ccccc3)c3ccccc3)nc(C)c2c1 (configuration not stated)	0.574
CCN(CC)S(=O)(=O)c1csc(C(=O)OCC(=O)c2ccccc2)c1	-0.217
O=C(CCCCCn1c(=S)[nH]c2ccc(Br)cc2c1=O)NCC1CCCO1 (configuration not stated)	1.92
S=C(Nc1ccccc1)Nc1cc(Cl)ccc1Oc1ccccc1	3.43
COc1ccccc1-c1noc(CCC(=O)Nc2cccc(C)c2)n1	-0.323
CC(C)n1c(O)c(N=NC(=O)c2ccccc2NS(=O)(=O)c2cccs2)c2ccccc21	-0.411
CC(C)NC(=O)CSCc1c(Cl)cccc1Cl	-0.342
CCOC(=O)N1CCC(N2C(=O)c3ccccc3C2Nc2ccc(C)cc2)CC1 (configuration not stated)	-0.488
COc1cc(NC(=O)c2ccco2)ccc1NC(=O)C(C)C	0.332
COc1cc(/C=C(\C#N)c2nc(-c3cc4ccccc4oc3=O)cs2)ccc1O	-2.33
S=C(Nc1ccccc1Oc1ccccc1)Nc1cccc(Cl)c1Cl	4.09
O=C1OC(Cc2ccncc2)C(O)=C1C1=NCCCN1 (configuration not stated)	-0.135
Cc1ccccc1OCC(O)Cn1nnc2ccccc21 (configuration not stated)	-0.244
CCOC(=O)N1CCN(Cc2nc(N)nc(Nc3ccc(OCC)cc3)n2)CC1	-0.27
Cc1cc(NS(=O)(=O)c2ccc(NC(=S)NC(=O)c3ccc(F)cc3)cc2)no1	-0.0103
Cc1ccc2c(c1)/C(=N/OS(=O)(=O)c1ccccc1)CCS2	-0.0781
CCOC(=O)N1CCC(N2C(=O)c3ccccc3C2Nc2ccc3c(C)cc(=O)oc3c2)CC1 (configuration not stated)	4.01
Cc1cc(NS(=O)(=O)c2ccc(NC(=O)Nc3ccccc3)cc2)no1	0.82
S=C(Nc1ccccc1)Nc1ccc(Cl)cc1Cl	1.43
CCN(CC)S(=O)(=O)c1csc(C(=O)NCc2ccccc2)c1	2.45
